system: 276233-004-R-J1-PDC KRAS spheroids with HUVEC/MSC, viability; test: Anticancer human tumor 276233-004-R-J1-PDC patient-derived colon adenocarcinoma cell line growth inhibition [KRAS2]; conditions: second compound 0.316 µM; first compound 1 µM; stronger effect = lower value
readout-type: viability, T/C (%)
Value expressed in %; do not type the unit.

O=C(c1cc(Cc2n[nH]c(=O)c3ccccc23)ccc1F)N1CCN(C(=O)C2CC2)CC1 + C=CC(=O)N1CCN(c2nc(OCC3CCCN3C)nc3c2CCN(c2cccc4cccc(C)c24)C3)CC1CC#N | 68.7
COc1cc2nccc(Oc3ccc(NC(=O)C4(C(=O)Nc5ccc(F)cc5)CC4)cc3)c2cc1OC + CC1OCC2(CCN(c3cnc(Sc4ccnc(N)c4Cl)c(N)n3)CC2)C1N | 72.7
CCN1CCN(Cc2ccc(Nc3ncc(F)c(-c4cc(F)c5nc(C)n(C(C)C)c5c4)n3)nc2)CC1 + C=CC(=O)N1CCN(c2nc(=O)n(-c3c(C)ccnc3C(C)C)c3nc(-c4c(O)cccc4F)c(F)cc23)C(C)C1 | 125
CC1COCCN1c1cc(-c2ccnn2C)c2ccnc(-c3ccn[nH]3)c2n1 (stereo unspecified) + C=CC(=O)N1CCN(c2nc(=O)n(-c3c(C)ccnc3C(C)C)c3nc(-c4c(O)cccc4F)c(F)cc23)C(C)C1 | 74.5
CC1COCCN1c1cc(-c2ccnn2C)c2ccnc(-c3ccn[nH]3)c2n1 (stereo unspecified) + COc1cc2nc(C)nc(NC(C)c3cc(N)cc(C(F)(F)F)c3)c2cc1OC1CCOC1 | 42.6
O=C(c1cc(Cc2n[nH]c(=O)c3ccccc23)ccc1F)N1CCN(C(=O)C2CC2)CC1 + C=CC(=O)N1CCN(c2nc(=O)n(-c3c(C)ccnc3C(C)C)c3nc(-c4c(O)cccc4F)c(F)cc23)C(C)C1 | 99

Per the record, CCNC(=O)CC1N=C(c2ccc(Cl)cc2)c2cc(OC)ccc2-n2c(C)nnc21 (stereo unspecified) + CNCc1ccccc1-c1csc(C(C)Nc2nc(C)nc3cc(OC)c(OC)cc23)c1 has viability, T/C of 73.5

Per the record, COc1cc(Nc2ncc3c(n2)-c2ccc(Cl)cc2C(c2c(F)cccc2OC)=NC3)ccc1C(=O)O + CNCc1ccccc1-c1csc(C(C)Nc2nc(C)nc3cc(OC)c(OC)cc23)c1 has viability, T/C of 97.7

Per the record, COc1cc2nccc(Oc3ccc(NC(=O)C4(C(=O)Nc5ccc(F)cc5)CC4)cc3)c2cc1OC + CNCc1ccccc1-c1csc(C(C)Nc2nc(C)nc3cc(OC)c(OC)cc23)c1 has viability, T/C of 109

Per the record, COc1cc2nccc(Oc3ccc(NC(=O)C4(C(=O)Nc5ccc(F)cc5)CC4)cc3)c2cc1OC + C=CC(=O)N1CCN(c2nc(OCC3CCCN3C)nc3c2CCN(c2cccc4cccc(C)c24)C3)CC1CC#N has viability, T/C of 84.6

Per the record, Cn1nccc1Nc1nccc(-c2cc3c(s2)C(C)(C)N(CCN2CCOCC2)C3=O)n1 + COc1cc2nc(C)nc(NC(C)c3cc(N)cc(C(F)(F)F)c3)c2cc1OC1CCOC1 has viability, T/C of 60

====

// reported viability, T/C per item
test system: 276233-004-R-J1-PDC KRAS spheroids with HUVEC/MSC, viability; assay: Anticancer human tumor 276233-004-R-J1-PDC cell line growth inhibition [KRAS2]; conditions: second compound 0.316 µM; first compound 0.316 µM; stronger effect = lower value;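 note: cells exposed to agents for seven days before viability read; 100% = DMSO vehicle control wells and lower values mean fewer viable cells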
Value expressed in %; do not type the unit.

Before answering, review these 6 worked examples.
CC1COCCN1c1cc(-c2ccnn2C)c2ccnc(-c3ccn[nH]3)c2n1 (stereo not drawn) + C=CC(=O)N1CCN(c2nc(OCC3CCCN3C)nc3c2CCN(c2cccc4cccc(C)c24)C3)CC1CC#N | 69.4
COC(=O)c1ccc2c(C(=Nc3ccc(N(C)C(=O)CN4CCN(C)CC4)cc3)c3ccccc3)c(O)[nH]c2c1 + CNCc1ccccc1-c1csc(C(C)Nc2nc(C)nc3cc(OC)c(OC)cc23)c1 | 71.4
COc1cc(Nc2ncc3c(n2)-c2ccc(Cl)cc2C(c2c(F)cccc2OC)=NC3)ccc1C(=O)O + C=CC(=O)N1CCN(c2nc(=O)n(-c3c(C)ccnc3C(C)C)c3nc(-c4c(O)cccc4F)c(F)cc23)C(C)C1 | 117
CC1COCCN1c1cc(-c2ccnn2C)c2ccnc(-c3ccn[nH]3)c2n1 (stereo not drawn) + CC1OCC2(CCN(c3cnc(Sc4ccnc(N)c4Cl)c(N)n3)CC2)C1N | 74.6
CC1COCCN1c1cc(-c2ccnn2C)c2ccnc(-c3ccn[nH]3)c2n1 (stereo not drawn) + COc1cc2nc(C)nc(NC(C)c3cc(N)cc(C(F)(F)F)c3)c2cc1OC1CCOC1 | 58.9
COC(=O)c1ccc2c(C(=Nc3ccc(N(C)C(=O)CN4CCN(C)CC4)cc3)c3ccccc3)c(O)[nH]c2c1 + C=CC(=O)N1CCN(c2nc(OCC3CCCN3C)nc3c2CCN(c2cccc4cccc(C)c24)C3)CC1CC#N | 76.2

For the molecule CC1(C)CCC(CN2CCN(c3ccc(C(=O)NS(=O)(=O)c4ccc(NCC5CCOCC5)c([N+](=O)[O-])c4)c(Oc4cnc5[nH]ccc5c4)c3)CC2)=C(c2ccc(Cl)cc2)C1 + CC1OCC2(CCN(c3cnc(Sc4ccnc(N)c4Cl)c(N)n3)CC2)C1N , the measured viability, T/C on 276233-004-R-J1-PDC KRAS spheroids with HUVEC/MSC, viability was 89.2

For the molecule CC(C)NCC(C(=O)N1CCN(c2ncnc3c2C(C)CC3O)CC1)c1ccc(Cl)cc1 (stereo not drawn) + COc1cc2nc(C)nc(NC(C)c3cc(N)cc(C(F)(F)F)c3)c2cc1OC1CCOC1 , the measured viability, T/C on 276233-004-R-J1-PDC KRAS spheroids with HUVEC/MSC, viability was 62.7

====

tested on: 276233-004-R-J1-PDC KRAS spheroids with HUVEC/MSC, viability; assay: Anticancer human tumor 276233-004-R-J1-PDC cell line growth inhibition [KRAS2]; conditions: second compound 0.316 µM; first compound 1 µM; stronger effect = lower value;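 note: cells exposed to agents for seven days before viability read; 100% = DMSO vehicle control wells and lower values mean fewer viable cells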
readout-type: viability, T/C (%)
Value expressed in %; do not type the unit.

Before answering, review these 6 worked examples.
CC(=O)OC12COC1CC(O)C1(C)C(=O)C(O)C3=C(C)C(OC(=O)C(O)C(NC(=O)OC(C)(C)C)c4ccccc4)CC(O)(C(OC(=O)c4ccccc4)C21)C3(C)C (configuration not stated) + C=CC(=O)N1CCN(c2nc(=O)n(-c3c(C)ccnc3C(C)C)c3nc(-c4c(O)cccc4F)c(F)cc23)C(C)C1 | 90.1
Cn1nccc1Nc1nccc(-c2cc3c(s2)C(C)(C)N(CCN2CCOCC2)C3=O)n1 + C=CC(=O)N1CCN(c2nc(=O)n(-c3c(C)ccnc3C(C)C)c3nc(-c4c(O)cccc4F)c(F)cc23)C(C)C1 | 99.3
CC1OCC2(CCN(c3cnc(Sc4ccnc(N)c4Cl)c(N)n3)CC2)C1N (configuration not stated) + COc1cc2nc(C)nc(NC(C)c3cc(N)cc(C(F)(F)F)c3)c2cc1OC1CCOC1 | 62.7
COc1cc(Nc2ncc3c(n2)-c2ccc(Cl)cc2C(c2c(F)cccc2OC)=NC3)ccc1C(=O)O + C=CC(=O)N1CCN(c2nc(=O)n(-c3c(C)ccnc3C(C)C)c3nc(-c4c(O)cccc4F)c(F)cc23)C(C)C1 | 111
COc1cc2nccc(Oc3ccc(NC(=O)C4(C(=O)Nc5ccc(F)cc5)CC4)cc3)c2cc1OC + C=CC(=O)N1CCN(c2nc(=O)n(-c3c(C)ccnc3C(C)C)c3nc(-c4c(O)cccc4F)c(F)cc23)C(C)C1 | 91.3
COC(=O)c1ccc2c(C(=Nc3ccc(N(C)C(=O)CN4CCN(C)CC4)cc3)c3ccccc3)c(O)[nH]c2c1 + C=CC(=O)N1CCN(c2nc(OCC3CCCN3C)nc3c2CCN(c2cccc4cccc(C)c24)C3)CC1CC#N | 77.1

Per the record, CC1OCC2(CCN(c3cnc(Sc4ccnc(N)c4Cl)c(N)n3)CC2)C1N (configuration not stated) + C=CC(=O)N1CCN(c2nc(=O)n(-c3c(C)ccnc3C(C)C)c3nc(-c4c(O)cccc4F)c(F)cc23)C(C)C1 has viability, T/C of 85.9

====

// reported viability, T/C per item
test system: 276233-004-R-J1-PDC KRAS spheroids with HUVEC/MSC, viability; test: Anticancer human tumor 276233-004-R-J1-PDC cell line growth inhibition [KRAS2]; settings: second compound 3.16 µM; first compound 0.1 µM; stronger effect = lower value;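 note: cells exposed to agents for seven days before viability read; 100% = DMSO vehicle control wells and lower values mean fewer viable cells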
Value expressed in %; do not type the unit.

CC1OCC2(CCN(c3cnc(Sc4ccnc(N)c4Cl)c(N)n3)CC2)C1N (stereo not drawn) + CNCc1ccccc1-c1csc(C(C)Nc2nc(C)nc3cc(OC)c(OC)cc23)c1 | 0.85

Per the record, Cn1ncnc1[C@H]1c2n[nH]c(=O)c3cc(F)cc(c23)N[C@@H]1c1ccc(F)cc1 + C=CC(=O)N1CCN(c2nc(=O)n(-c3c(C)ccnc3C(C)C)c3nc(-c4c(O)cccc4F)c(F)cc23)C(C)C1 has viability, T/C of 133

Per the record, CC1(C)CCC(CN2CCN(c3ccc(C(=O)NS(=O)(=O)c4ccc(NCC5CCOCC5)c([N+](=O)[O-])c4)c(Oc4cnc5[nH]ccc5c4)c3)CC2)=C(c2ccc(Cl)cc2)C1 + CNCc1ccccc1-c1csc(C(C)Nc2nc(C)nc3cc(OC)c(OC)cc23)c1 has viability, T/C of 0.56

Per the record, CC1COCCN1c1cc(-c2ccnn2C)c2ccnc(-c3ccn[nH]3)c2n1 (stereo not drawn) + C=CC(=O)N1CCN(c2nc(OCC3CCCN3C)nc3c2CCN(c2cccc4cccc(C)c24)C3)CC1CC#N has viability, T/C of 56.8

Per the record, CCNC(=O)CC1N=C(c2ccc(Cl)cc2)c2cc(OC)ccc2-n2c(C)nnc21 (stereo not drawn) + COc1cc2nc(C)nc(NC(C)c3cc(N)cc(C(F)(F)F)c3)c2cc1OC1CCOC1 has viability, T/C of 69.7

Per the record, COc1cc(Nc2ncc3c(n2)-c2ccc(Cl)cc2C(c2c(F)cccc2OC)=NC3)ccc1C(=O)O + C=CC(=O)N1CCN(c2nc(OCC3CCCN3C)nc3c2CCN(c2cccc4cccc(C)c24)C3)CC1CC#N has viability, T/C of 64

Per the record, CCN1CCN(Cc2ccc(Nc3ncc(F)c(-c4cc(F)c5nc(C)n(C(C)C)c5c4)n3)nc2)CC1 + COc1cc2nc(C)nc(NC(C)c3cc(N)cc(C(F)(F)F)c3)c2cc1OC1CCOC1 has viability, T/C of 81.1

Per the record, CCNC(=O)CC1N=C(c2ccc(Cl)cc2)c2cc(OC)ccc2-n2c(C)nnc21 (stereo not drawn) + CC1OCC2(CCN(c3cnc(Sc4ccnc(N)c4Cl)c(N)n3)CC2)C1N has viability, T/C of 71.6
